Each recorded value in this set is attributed to patent US9820972B2.

test system: HCV NS5A Replicon GT-4a; assay: HCV double reporter gene replicon assay, GT-4a; format: cell-based; settings: Hepatitis C virus, genotype 1a / genotype 4a / genotype 6a; GT-4a replicon
observed_property: EC50
Write down the value, and be sure its unit follows.

Ask | Entry COC(=O)N[C@@H](C(=O)N1CC=CC1c1nc(-c2ccc(-c3cc4sc(-c5c[nH]c(C6CCCN6C(=O)[C@H](NC(=O)OC)c6ccccc6)n5)cc4s3)cc2)c[nH]1)c1ccccc1 (stereo partly shown) : reported EC50 = ?
Reply | 8 pM

---

tested on: GT-1a of NS5A Replicon; test: HCV double reporter gene (Renilla luciferase) replicon assay, GT-1a; assay type: cell-based, Hepatitis C virus (HCV); details: Hepatitis C virus, GT1A, GT-1a replicon; class symbols; read-out: EC50 For GT-1a of NS5A Replicon
observed_property: EC50

INSERT INTO measurements (molecule, observed_property, result) VALUES
  ('COC(=O)N[C@H](C(=O)N1CC=CC1c1ncc(-c2ccc(-c3csc4c(-c5c[nH]c([C@@H]6CCCN6C(=O)[C@H](NC(=O)OC)c6ccccc6)n5)csc34)cc2)[nH]1)C(C)C (stereo partly shown)', 'EC50', '0.001 to 0.999 nM'),
  ('COC(=O)N[C@H](C(=O)N1CN(C(=O)N2Cc3ccc4c(c3C2)OCO4)CC1c1nc(-c2ccc(-c3ccc(-c4c[nH]c([C@@H]5CCCN5C(=O)[C@@H](NC(=O)OC)C(C)C)n4)cc3)cc2)c[nH]1)C(C)C (stereo partly shown)', 'EC50', '0.001 to 0.999 nM'),
  ('COC(=O)N[C@H](C(=O)N1CC=C[C@H]1c1nc(-c2ccc(-c3ccc(-c4cnc([C@@H]5CC6(CN5C(=O)[C@H](NC(=O)OC)c5ccccc5)OCCO6)[nH]4)cc3)cc2)c[nH]1)C(C)C', 'EC50', '0.001 to 0.999 nM');

In the following, a different molecule is considered.
Ask | Entry "CC(C)(C)OC(=O)N[C@H](C(=O)N1CCC[C@H]1c1nc(-c2ccc(-c3ccc(-c4cnc([C@@H]5C[C@@H](OC(=O)N6Cc7cc8c(cc7C6)OCO8)CN5C(=O)[C@@H](NC(=O)OC(C)(C)C)C(C)(C)C)[nH]4)cc3)cc2)c[nH]1)C(C)(C)C" : reported EC50 = ?
Reply | > 50 nM
